// data source = patent US7812021B2

Catalogue of compounds with associated pKi
- Assay System: recombinant human NK3 receptor (Homo sapiens, UniProt P29371)
- Construct: membranes
- Test Description: [3H]SR142801 competition binding assay
- Measurement Setup: membranes from HEK293 cells transiently expressing recombinant human NK3 receptor; [3H]SR142801 radioligand; Ki by Cheng-Prussoff
pKi: −log10 of the molar value.
Quantity Kind: pKi

Compound | Quantity Kind | Recorded Value
C[C@H](Oc1ccc(Cl)cc1)[C@@H]1CN(C(=O)N2CCN(S(C)(=O)=O)CC2)C[C@H]1c1ccc(Cl)c(Cl)c1 (racemic) | pKi | 7.17
CS(=O)(=O)N1CCN(C(=O)N2C[C@@H](COc3ccc(Cl)cn3)[C@H](c3ccc(Cl)c(Cl)c3)C2)CC1 (racemic) | pKi | 7.92
C[C@@H](Oc1ncc(F)cn1)[C@@H]1CN(C(=O)N2CCN(S(C)(=O)=O)CC2)C[C@H]1c1ccc(Cl)c(Cl)c1 (racemic) | pKi | 7.63
C[C@@H](Oc1ccc(C(F)(F)F)cc1)[C@@H]1CN(C(=O)N2CCC(N(C)S(C)(=O)=O)CC2)C[C@H]1c1ccc(Cl)c(Cl)c1 (racemic) | pKi | 7.11
C[C@@H](Oc1ccc(C#N)cc1)[C@@H]1CN(C(=O)N2CCN(S(C)(=O)=O)CC2)C[C@H]1c1ccc(Cl)c(Cl)c1 (racemic) | pKi | 7.12

----------
- Assay System: recombinant human NK3 receptor (Homo sapiens)
- Construct: membranes
- Sequence (P29371 1-465): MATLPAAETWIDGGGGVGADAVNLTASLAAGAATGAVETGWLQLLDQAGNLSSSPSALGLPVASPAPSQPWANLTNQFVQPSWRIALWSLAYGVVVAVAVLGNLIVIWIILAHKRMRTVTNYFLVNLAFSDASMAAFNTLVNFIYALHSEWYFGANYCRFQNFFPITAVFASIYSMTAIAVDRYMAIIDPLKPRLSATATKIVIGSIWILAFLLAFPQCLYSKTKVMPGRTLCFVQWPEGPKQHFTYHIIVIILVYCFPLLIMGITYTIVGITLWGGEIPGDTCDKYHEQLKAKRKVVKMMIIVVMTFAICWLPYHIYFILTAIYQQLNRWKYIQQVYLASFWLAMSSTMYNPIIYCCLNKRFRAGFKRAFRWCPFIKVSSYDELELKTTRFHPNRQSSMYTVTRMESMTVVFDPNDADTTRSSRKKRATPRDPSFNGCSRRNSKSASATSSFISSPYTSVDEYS
- Test Description: [3H]SR142801 competition binding assay
- Measurement Setup: membranes from HEK293 cells transiently expressing recombinant human NK3 receptor; [3H]SR142801 radioligand; Ki by Cheng-Prussoff
- Procedure: [^3H]SR142801 Competition Binding Assay hNK3 receptor binding experiment were performed using [^3H]SR142801 (Catalog No. TRK1035, specific activity: 74.0 Ci/mmol, Amersham, GE Healthcare UK limited, Buckinghamshire, UK) and membrane isolated from HEK293 cells transiently expressing recombinant human NK3 receptor. […] Nonspecific binding was measured in the presence of 10 μM SB222200 for both radioligands. […]
Quantity Kind: Ki (nM)

Molecule | Quantity Kind | Unit | Recorded Value
CC(=O)NC1(c2ccccc2)CCN(CC(=O)N2C[C@@H]([C@@H](C)Oc3ccc(Cl)cc3)[C@H](c3ccc(Cl)c(Cl)c3)C2)CC1 (racemic) [Example 64] | Ki | nM | 19
C[C@@H](Oc1ccc(Cl)cn1)[C@@H]1CN(C(=O)CCCCN2CCOCC2)C[C@H]1c1ccc(Cl)c(Cl)c1 (racemic) [Example 55] | Ki | nM | 20
C[C@@H](Oc1ccc(Cl)cn1)[C@@H]1CN(C(=O)N2CCN3C(=O)CCC3C2)C[C@H]1c1ccc(Cl)c(Cl)c1 (mixture of isomers) [Example 62] | Ki | nM | 24
